What Accumulative excretion percentage was measured for each of the following?
Experiment: Fecal excretion study in rats after oral NS, SF or CNS (LC–MS/MS)
Assay type: in vivo
Details: rat feces, oral CNS 110 mg/kg, 8 h
Report the value in % with no unit label.

input: Looking for the measured Accumulative excretion percentage of CC(C)=CCC[C@](C)(O[C@@H]1O[C@H](CO)[C@@H](O)[C@H](O)[C@H]1O)[C@H]1CC[C@]2(C)[C@@H]1[C@H](O)C[C@@H]1[C@@]3(C)CC[C@H](O[C@@H]4O[C@H](CO)[C@@H](O)[C@H](O)[C@H]4O[C@@H]4O[C@H](CO)[C@@H](O)[C@H](O)[C@H]4O)C(C)(C)[C@@H]3CC[C@]12C [ginsenoside Rd] , can you help?
output: 0.883

input: Looking for the measured Accumulative excretion percentage of CC(C)=CCC[C@](C)(O[C@@H]1O[C@H](CO)[C@@H](O)[C@H](O)[C@H]1O)[C@H]1CC[C@]2(C)[C@@H]1[C@H](O)C[C@@H]1[C@@]3(C)CC[C@H](O)C(C)(C)[C@@H]3[C@@H](O[C@@H]3O[C@H](CO)[C@@H](O)[C@H](O)[C@H]3O[C@@H]3O[C@@H](C)[C@H](O)[C@@H](O)[C@H]3O)C[C@]12C [ginsenoside Re] , can you help?
output: 1.022

input: Looking for the measured Accumulative excretion percentage of CC(C)=CCC[C@](C)(O[C@@H]1O[C@H](CO[C@@H]2O[C@H](CO)[C@@H](O)[C@H](O)[C@H]2O)[C@@H](O)[C@H](O)[C@H]1O)[C@H]1CC[C@]2(C)[C@@H]1[C@H](O)C[C@@H]1[C@@]3(C)CC[C@H](O[C@@H]4O[C@H](CO)[C@@H](O)[C@H](O)[C@H]4O[C@@H]4O[C@H](CO)[C@@H](O)[C@H](O)[C@H]4O)C(C)(C)[C@@H]3CC[C@]12C [ginsenoside Rb1] , can you help?
output: 0.607
